Please respond with reported CC50 for every item in the list.
system: MDA-MB-231/ATCC; experiment: cells; conditions: Homo sapiens, MDA-MB-231, 48 h, read-out: LC50, MDA-MB-231/ATCC, 48 h
Answers are plain numbers, in µM.

Field: example entries. Status: answers known.
INSERT INTO assay_data (molecule, tested_target, quantitative_result) VALUES
  ('CC(C)C(C(=O)O)N1C(=O)/C(=C/C=C/c2ccc([N+](=O)[O-])o2)SC1=S (centres unmarked) [5b]', 'MDA-MB-231/ATCC', 5.9),
  ('CCCC(C(=O)O)N1C(=O)/C(=C/C=C/c2ccc([N+](=O)[O-])o2)SC1=S (centres unmarked) [4b]', 'MDA-MB-231/ATCC', 8.33),
  ('O=C(O)CCN1C(=O)/C(=C/C=C/c2ccc([N+](=O)[O-])o2)SC1=S [12b]', 'MDA-MB-231/ATCC', 6.15),
  ('O=C(O)C(c1ccccc1)N1C(=O)/C(=C/C=C/c2ccc([N+](=O)[O-])o2)SC1=S (centres unmarked) [9b]', 'MDA-MB-231/ATCC', 54.2);

API: the following record is the query input.
Data request, read-out CC50, for CCCCC(C(=O)O)N1C(=O)/C(=C/C=C/c2ccc([N+](=O)[O-])o2)SC1=S (centres unmarked) [6b] 8.73

* * *

system: HL-60(TB); assay: NCI-60 SRB screen; conditions: Homo sapiens, HL-60, 48 h, read-out: LC50, HL-60(TB), 48 h
readout label: CC50

Example cases with answers are listed next.
INSERT INTO results (compound, result) VALUES
  ('CCCCC(C(=O)O)N1C(=O)/C(=C/C=C/c2ccc([N+](=O)[O-])o2)SC1=S (centres unmarked) [6b]', '> 100 µM'),
  ('CC(C)C(C(=O)O)N1C(=O)/C(=C/C=C/c2ccc([N+](=O)[O-])o2)SC1=S (centres unmarked) [5b]', '> 100 µM'),
  ('O=C(O)CCCN1C(=O)/C(=C/C=C/c2ccc([N+](=O)[O-])o2)SC1=S [13b]', '> 100 µM'),
  ('CCCC(C(=O)O)N1C(=O)/C(=C/C=C/c2ccc([N+](=O)[O-])o2)SC1=S (centres unmarked) [4b]', '> 100 µM');

# next compound below
Would you kindly share the measured CC50 for O=C(O)C(c1ccccc1)N1C(=O)/C(=C/C=C/c2ccc([N+](=O)[O-])o2)SC1=S (centres unmarked) [9b] ? > 100 µM

* * *

tested on: MDA-MB-468; conditions: human, 48 h
readout label: CC50 (µM)
Numbers only, in µM.

Would you kindly share the measured CC50 for O=C(O)CCCCCN1C(=O)/C(=C/C=C/c2ccc([N+](=O)[O-])o2)SC1=S [14b] ? 4.29

* * *

test system: MDA-MB-435; details: MDA-MB-435, 48 h
readout label: TGI (µM)
Numbers only, in µM.

INSERT INTO assay_data (compound, readout_label, quantitative_result) VALUES
  ('CC(C)C(C(=O)O)N1C(=O)/C(=C/C=C/c2ccc([N+](=O)[O-])o2)SC1=S (centres unmarked) [5b]', 'TGI', 2.17),
  ('CCCCC(C(=O)O)N1C(=O)/C(=C/C=C/c2ccc([N+](=O)[O-])o2)SC1=S (centres unmarked) [6b]', 'TGI', 3.95),
  ('CCCC(C(=O)O)N1C(=O)/C(=C/C=C/c2ccc([N+](=O)[O-])o2)SC1=S (centres unmarked) [4b]', 'TGI', 3.31),
  ('O=C(O)CCN1C(=O)/C(=C/C=C/c2ccc([N+](=O)[O-])o2)SC1=S [12b]', 'TGI', 2.48);

Find the recorded TGI belonging to O=C(O)C(c1ccccc1)N1C(=O)/C(=C/C=C/c2ccc([N+](=O)[O-])o2)SC1=S (centres unmarked) [9b] and report it. 13.0

* * *

system: HCC-2998; details: HCC-2998, 10 μM, 48 h
readout label: growth GP (%)
Give bare numbers, in %.

A selection of reference data follows.
INSERT INTO results (molecule, readout_label, quantitative_result) VALUES
  ('O=C(O)CCCCCN1C(=O)/C(=C/C=C/c2ccc([N+](=O)[O-])o2)SC1=S [14b]', 'growth GP', -95.72),
  ('O=C(O)CCCN1C(=O)/C(=C/C=C/c2ccc([N+](=O)[O-])o2)SC1=S [13b]', 'growth GP', -95.27),
  ('O=C(O)CCN1C(=O)/C(=C/C=C/c2ccc([N+](=O)[O-])o2)SC1=S [12b]', 'growth GP', -95.81);

Please look at the following molecule next.
What does the record list as growth GP for CC(C)C(C(=O)O)N1C(=O)/C(=C/C=C/c2ccc([N+](=O)[O-])o2)SC1=S (stereo not shown) ? -95.90

* * *

test system: HL-60(TB); test: NCI-60 SRB screen; details: HL-60(TB), 48 h
Hi! Could you tag entries with TGI below 6 µM as y, and those at or above as n? Much appreciated.

Consider the following illustrative entries.
INSERT INTO results (molecule, discrete_label) VALUES
  ('CCCC(C(=O)O)N1C(=O)/C(=C/C=C/c2ccc([N+](=O)[O-])o2)SC1=S (centres unmarked)', 'n'),
  ('O=C(O)C(c1ccccc1)N1C(=O)/C(=C/C=C/c2ccc([N+](=O)[O-])o2)SC1=S (centres unmarked)', 'n'),
  ('CCCCC(C(=O)O)N1C(=O)/C(=C/C=C/c2ccc([N+](=O)[O-])o2)SC1=S (centres unmarked)', 'n'),
  ('O=C(O)CCN1C(=O)/C(=C/C=C/c2ccc([N+](=O)[O-])o2)SC1=S [12b]', 'y');

Okay, next one:
State whether 6 µM exceeds TGI recorded for CC(C)C(C(=O)O)N1C(=O)/C(=C/C=C/c2ccc([N+](=O)[O-])o2)SC1=S (centres unmarked) . y

* * *

system: TK-10; details: human, 48 h
Exercise: for every item that follows, state its recorded CC50.
Answers are plain numbers, in µM.

INSERT INTO measurements (molecule, quantitative_result) VALUES
  ('O=C(O)CCCN1C(=O)/C(=C/C=C/c2ccc([N+](=O)[O-])o2)SC1=S [13b]', 4.77);

Moving on to the next molecule.
What does the record list as CC50 for O=C(O)CCCCCN1C(=O)/C(=C/C=C/c2ccc([N+](=O)[O-])o2)SC1=S [14b] ? 6.33

* * *

tested on: MDA-MB-468; assay: NCI-60 SRB screen; conditions: MDA-MB-468, 48 h
Would you please tag the item True when its TGI is 3 µM or above, and False when it is below?

INSERT INTO measurements (compound, discrete_label) VALUES
  ('O=C(O)C(c1ccccc1)N1C(=O)/C(=C/C=C/c2ccc([N+](=O)[O-])o2)SC1=S (centres unmarked) [9b]', 'True'),
  ('CC(C)C(C(=O)O)N1C(=O)/C(=C/C=C/c2ccc([N+](=O)[O-])o2)SC1=S (centres unmarked) [5b]', 'False'),
  ('CCCCC(C(=O)O)N1C(=O)/C(=C/C=C/c2ccc([N+](=O)[O-])o2)SC1=S (centres unmarked) [6b]', 'True');

Moving on to another compound below.
Please check the record O=C(O)CCN1C(=O)/C(=C/C=C/c2ccc([N+](=O)[O-])o2)SC1=S [12b] and state if its TGI is at or above 3 µM. False

* * *

system: MCF7; assay: NCI-60 SRB screen; conditions: Homo sapiens, MCF7, 48 h
Field: GI50. Provide a value for each of the molecules that follow.
Numbers only, in nM.

INSERT INTO assay_data (molecule, unit_annotation, quantitative_result) VALUES
  ('O=C(O)C(c1ccccc1)N1C(=O)/C(=C/C=C/c2ccc([N+](=O)[O-])o2)SC1=S (stereo not shown)', 'nM', 3670);

Your task in this section: give GI50 for each listed record.
1. CCCC(C(=O)O)N1C(=O)/C(=C/C=C/c2ccc([N+](=O)[O-])o2)SC1=S (stereo not shown)
2. O=C(O)CCN1C(=O)/C(=C/C=C/c2ccc([N+](=O)[O-])o2)SC1=S [12b]
3. O=C(O)CCCN1C(=O)/C(=C/C=C/c2ccc([N+](=O)[O-])o2)SC1=S [13b]
4. CC(C)C(C(=O)O)N1C(=O)/C(=C/C=C/c2ccc([N+](=O)[O-])o2)SC1=S (stereo not shown)
5. CCCCC(C(=O)O)N1C(=O)/C(=C/C=C/c2ccc([N+](=O)[O-])o2)SC1=S (stereo not shown)
6. O=C(O)CCCCCN1C(=O)/C(=C/C=C/c2ccc([N+](=O)[O-])o2)SC1=S [14b]

1600
460
350
430
1640
390

Origin of the recorded values: paper PMC12655351
